# reported pIC50; entries follow
system tested: Sodium/glucose cotransporter 1 (Homo sapiens)
Sequence (P13866 whole entry): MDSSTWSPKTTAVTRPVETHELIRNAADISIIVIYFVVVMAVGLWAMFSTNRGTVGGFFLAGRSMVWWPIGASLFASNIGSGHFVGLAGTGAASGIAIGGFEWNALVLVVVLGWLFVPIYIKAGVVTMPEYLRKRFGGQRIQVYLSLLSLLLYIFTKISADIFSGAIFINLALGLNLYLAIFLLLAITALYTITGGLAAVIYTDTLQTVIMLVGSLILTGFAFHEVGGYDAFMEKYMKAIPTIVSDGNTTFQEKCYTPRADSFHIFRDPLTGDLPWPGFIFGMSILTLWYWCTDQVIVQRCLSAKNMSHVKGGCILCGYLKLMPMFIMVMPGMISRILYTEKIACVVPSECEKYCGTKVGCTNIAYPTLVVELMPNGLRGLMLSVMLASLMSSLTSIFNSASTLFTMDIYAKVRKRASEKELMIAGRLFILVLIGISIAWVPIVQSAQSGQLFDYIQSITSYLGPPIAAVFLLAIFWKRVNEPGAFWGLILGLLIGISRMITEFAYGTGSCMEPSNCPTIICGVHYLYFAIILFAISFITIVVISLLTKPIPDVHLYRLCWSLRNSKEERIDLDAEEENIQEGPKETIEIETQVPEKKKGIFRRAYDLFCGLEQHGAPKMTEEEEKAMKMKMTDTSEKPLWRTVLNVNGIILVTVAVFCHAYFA
assay protocol: Inhibition of human SGLT1 expressed in CHOK1 cells assessed as inhibition of [14C]-AMG uptake after 3 hrs by microbeta scintillation counting analysis
pIC50: −log10 of the molar value.

Completed entries (count: 2):
smiles record | pIC50
Cc1cc2nn(Cc3cc([C@@H]4O[C@H](CO)[C@@H](O)[C@H](O)[C@H]4O)ccc3Cl)c(=O)n2cc1Cl | < 4.05
O=c1n(Cc2cc([C@@H]3O[C@H](CO)[C@@H](O)[C@H](O)[C@H]3O)ccc2Cl)nc2ccc(C(F)(F)F)cn12 | < 4.05

Now, please, on to the next compound.
Requested read-out: pIC50. Entry: O=c1n(Cc2cc([C@@H]3O[C@H](CO)[C@@H](O)[C@H](O)[C@H]3O)ccc2Cl)nc2ccc(CO)cn12
< 4.05
